# Tested On: human A1 receptor (Homo sapiens (Human), UniProt P30542)
# Sequence (P30542 whole entry): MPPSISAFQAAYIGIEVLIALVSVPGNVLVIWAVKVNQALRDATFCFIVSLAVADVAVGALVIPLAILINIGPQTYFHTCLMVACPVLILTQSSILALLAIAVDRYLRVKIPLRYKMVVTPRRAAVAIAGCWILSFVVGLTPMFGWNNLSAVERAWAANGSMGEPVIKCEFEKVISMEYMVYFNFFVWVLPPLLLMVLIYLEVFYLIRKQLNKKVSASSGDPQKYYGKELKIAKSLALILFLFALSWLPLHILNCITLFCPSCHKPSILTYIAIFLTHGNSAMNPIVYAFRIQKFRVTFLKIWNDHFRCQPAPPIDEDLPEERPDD
# Assay Details: A1 competition binding assay using Scintillation Proximity technology; selectivity = A1 binding Ki / A2a binding Ki
# Run Conditions: A1 binding Ki divided by A2a binding Ki
Each record here notes measured A2a selectivity (A2a A1 binding selectivity).
The response must contain the number and no unit.

Past entries and their recorded results:
COc1cccc2c(C(=O)NCc3ccccc3-c3ccccn3)nc(N)nc12 = 84
COc1cccc2c(C(=O)NCc3cccc(C(F)(F)F)n3)nc(N)nc12 = 412
COc1cccc2c(C(=O)NCc3cccc4c3OC(F)(F)O4)nc(N)nc12 = 39
Cc1ccc(-c2cccnc2CNC(=O)c2nc(N)nc3c(F)cccc23)nc1 = 44
Nc1nc(C(=O)NCc2ncccn2)c2cccc(I)c2n1 = 8

## Input What does the data say about its A2a selectivity (A2a A1 binding selectivity)? Entry: `COc1cccc2c(C(=O)N[C@H]3CCCc4cccnc43)nc(N)nc12`
## Output 48

## Input Value lookup for A2a selectivity (A2a A1 binding selectivity); key = `CC(C)c1nc(CNC(=O)c2nc(N)nc3c(F)cccc23)cs1`
## Output 56

## Input Return reported A2a selectivity (A2a A1 binding selectivity); argument: `[2H]C([2H])(NC(=O)c1nc(N)nc2c(OC)cccc12)c1cccc(C([2H])([2H])c2ccc(C(C)(C)OCOC)nc2)n1`
## Output 120

## Input Dear colleague, I am looking for the recorded A2a selectivity (A2a A1 binding selectivity) of the following molecule: `Nc1nc(C(=O)NCC2CCN(c3ncc(F)cn3)CC2)c2cccc(F)c2n1`
## Output 141

## Input Suppose we examine the molecule `COc1cccc2c(C(=O)NCc3cccc(COCC4CC4)n3)nc(N)nc12` ; what A2a selectivity (A2a A1 binding selectivity) value has been reported?
## Output 160

## Input Reported A2a selectivity (A2a A1 binding selectivity), molecule `COc1cccc2c(C(=O)NCc3cccc(-c4ccccn4)n3)nc(N)nc12` : ____
## Output 113

## Input Entry under review: `Nc1nc(C(=O)NCc2ncccc2-c2ncccn2)c2cccc(F)c2n1` . Reported A2a selectivity (A2a A1 binding selectivity)?
## Output 297

## Input Value lookup for A2a selectivity (A2a A1 binding selectivity); key = `COc1cccc2c(C(=O)NCc3cccc(CSc4ccc(F)cc4)n3)nc(N)nc12`
## Output 36

## Input Quick check: A2a selectivity (A2a A1 binding selectivity) of `Nc1nc(C(=O)NCc2cc(C3CC3)on2)c2cccc(F)c2n1` ?
## Output 3

## Input Which A2a selectivity (A2a A1 binding selectivity) is listed for `COc1cccc2c(C(=O)NCc3cccc(C(C)C)n3)nc(N)nc12` ?
## Output 146

## Input A2a selectivity (A2a A1 binding selectivity) for `COc1ccc(C(C)(C)O)nc1CNC(=O)c1nc(N)nc2c(OC)cccc12` ?
## Output 145

## Input # lookup: A2a selectivity (A2a A1 binding selectivity) of `COc1cccc2c(C(=O)NC3(c4ccccn4)CC3)nc(N)nc12`
## Output 3

---

# Tested On: human A2a receptor (Homo sapiens (Human))
# Sequence (P29274 whole entry): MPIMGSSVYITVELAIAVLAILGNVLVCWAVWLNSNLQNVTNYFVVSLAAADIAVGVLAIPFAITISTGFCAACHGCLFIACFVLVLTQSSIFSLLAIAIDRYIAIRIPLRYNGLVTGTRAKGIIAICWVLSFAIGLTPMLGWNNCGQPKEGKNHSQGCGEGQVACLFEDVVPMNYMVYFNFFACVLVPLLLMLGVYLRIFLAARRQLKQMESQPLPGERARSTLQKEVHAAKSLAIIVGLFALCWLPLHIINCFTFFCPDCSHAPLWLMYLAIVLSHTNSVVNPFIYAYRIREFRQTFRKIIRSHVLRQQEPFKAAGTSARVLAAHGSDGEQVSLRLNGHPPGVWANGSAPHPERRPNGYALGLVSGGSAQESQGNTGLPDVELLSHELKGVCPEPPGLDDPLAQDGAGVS
# Assay Details: A2a competition binding assay using Scintillation Proximity technology
# Run Conditions: 0.25 μg of membranes from HEK293 cells expressing the human A2a receptor
Outcome Measure: Ki
Enter the number, and then the unit.

See these solved cases before continuing.
COc1cccc2c(C(=O)NCc3cccc(CN4CCOCC4)c3)nc(N)nc12 [Example 53] = 7.1 nM
Nc1nc(C(=O)NCc2cccc(-c3ccccn3)n2)c2cccc(F)c2n1 [Example 63] = 0.8 nM
COc1cccc2c(C(=O)NCc3cccc(C(C)(C)O)n3)nc(N)nc12 [Example 9] = 0.4 nM
Nc1nc(C(=O)NCc2cccc3cccnc23)c2cccc(Cl)c2n1 [Example 91] = 3 nM

## Input // returns reported Ki for input Cc1cccn2cc(CNC(=O)c3nc(N)nc4c(F)cccc34)nc12 [Example 81]
## Output 6.9 nM

## Input So what does the record say about Ki for COc1cccc2c(C(=O)NCc3cccc4ccncc34)nc(N)nc12 [Example 16] ?
## Output 0.3 nM

## Input Can you share its Ki? I mean this compound: Nc1nc(C(=O)NCc2cccc(Cc3ccc(F)c(F)c3)n2)c2cccc(F)c2n1 [Example 102]
## Output 1.2 nM

## Input Field request: Ki | item: COc1cccc2c(C(=O)NCc3cccc(COC4CCCC4)n3)nc(N)nc12 [Example 48]
## Output 0.5 nM

## Input Consider the compound COc1cccc2c(C(=O)NCc3cccc(C4(O)CCC4)n3)nc(N)nc12 [Example 4] and give its measured Ki.
## Output 0.6 nM
